- System: Enterococcus faecalis A20688
- Test summary: MIC, broth micro dilution assay (NCCLS)
- Type: cell-based
- Cond: Mueller-Hinton medium, 35° C., 18 hours
For each entry below, report its MIC (μg/mL) against Enterococcus faecalis A20688 value.

// lookup MIC (μg/mL) against Enterococcus faecalis A20688 for COC(C)=C1NC(=O)C(C(C)O)NC(=O)c2csc(n2)-c2cc(O)c(-c3nc(C(=O)NC(CN4CCCC4C(C)O)C(N)=O)cs3)nc2-c2csc(n2)C2COC(=O)c3c4c5c(cccc5n3O)COC(=O)C(OC3CC(C)(O)C(N(C)C)C(C)O3)C(OC4)C(NC(=O)c3csc1n3)c1nc(cs1)C(=O)N2 (stereo not shown) [Example 88]
0.06 µg/mL

Item: COC(C)=C1NC(=O)C(C(C)O)NC(=O)c2csc(n2)-c2cc(O)c(-c3nc(C(=O)NC(CSCC4NC(=O)NC4=O)C(N)=O)cs3)nc2-c2csc(n2)C2COC(=O)c3c4c5c(cccc5n3O)COC(=O)C(OC3CC(C)(O)C(N(C)C)C(C)O3)C(OC4)C(NC(=O)c3csc1n3)c1nc(cs1)C(=O)N2 (stereo not shown) [Example 45]
128 µg/mL

Also COC(C)=C1NC(=O)C(C(C)O)NC(=O)c2csc(n2)-c2cc(O)c(-c3nc(C(=O)NC(CN4CCC(O)C4)C(N)=O)cs3)nc2-c2csc(n2)C2COC(=O)c3c4c5c(cccc5n3O)COC(=O)C(OC3CC(C)(O)C(N(C)C)C(C)O3)C(OC4)C(NC(=O)c3csc1n3)c1nc(cs1)C(=O)N2 (stereo not shown) [Example 37] , if possible.
0.125 µg/mL

Cool, now CO/C(C)=C1/NC(=O)C(C(C)O)NC(=O)c2csc(n2)-c2cc(O)c(-c3nc(C(=O)NC(CN(C)Cc4ccccc4O[C@@H]4O[C@H](CO)[C@@H](O)[C@H](O)[C@H]4O)C(N)=O)cs3)nc2-c2csc(n2)C2COC(=O)c3c4c5c(cccc5n3O)COC(=O)C(O[C@H]3C[C@](C)(O)[C@H](N(C)C)[C@H](C)O3)C(OC4)C(NC(=O)c3csc1n3)c1nc(cs1)C(=O)N2 (stereo partly shown) [Example 29]
0.25 µg/mL

Try the compound COC(C)=C1NC(=O)C(C(C)O)NC(=O)c2csc(n2)-c2cc(O)c(-c3nc(C(=O)NC(CN(C)CCCn4ccnc4)C(N)=O)cs3)nc2-c2csc(n2)C2COC(=O)c3c4c5c(cccc5n3O)COC(=O)C(O)C(OC4)C(NC(=O)c3csc1n3)c1nc(cs1)C(=O)N2 (stereo not shown) [Example 97]
0.25 µg/mL

Can you handle CCNCCN(CC)CC(NC(=O)c1csc(-c2nc3c(cc2O)-c2nc(cs2)C(=O)NC(C(C)O)C(=O)N/C(=C(\C)OC)c2nc(cs2)C(=O)NC2c4nc(cs4)C(=O)NC(COC(=O)c4c5c6c(cccc6n4O)COC(=O)C(O[C@H]4C[C@](C)(O)[C@H](N(C)C)[C@H](C)O4)C2OC5)c2nc-3cs2)n1)C(N)=O (stereo partly shown) [Example 25] next?
2.0 µg/mL

Quick one: COC(C)=C1NC(=O)C(C(C)O)NC(=O)c2csc(n2)-c2cc(O)c(-c3nc(C(=O)NC(CN(C)C(=O)CCC(=O)O)C(N)=O)cs3)nc2-c2csc(n2)C2COC(=O)c3c4c5c(cccc5n3O)COC(=O)C(OC3CC(C)(O)C(N(C)C)C(C)O3)C(OC4)C(NC(=O)c3csc1n3)c1nc(cs1)C(=O)N2 (stereo not shown) [Example 106]
32 µg/mL
